target: human Nav 1.8 (Homo sapiens, UniProt Q9Y5Y9); experiment: E-VIPR assay detecting and measuring Nav inhibition properties; type: cell-based; conditions: HEK cells expressing a truncated form of human Nav 1.8; compound numbers without "*" (not marked as run in the presence of human serum); read-out: measured IC50 value in the E-VIPR Assay
Sequence (Q9Y5Y9 126-399 limits assumed): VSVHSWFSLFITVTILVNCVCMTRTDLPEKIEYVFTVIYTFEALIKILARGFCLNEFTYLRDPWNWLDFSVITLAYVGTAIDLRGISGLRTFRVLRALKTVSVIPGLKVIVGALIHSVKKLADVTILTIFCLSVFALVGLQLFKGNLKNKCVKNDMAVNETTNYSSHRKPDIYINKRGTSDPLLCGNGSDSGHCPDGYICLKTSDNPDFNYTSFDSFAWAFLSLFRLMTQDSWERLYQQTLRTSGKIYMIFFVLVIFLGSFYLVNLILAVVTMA
Sequence (Q9Y5Y9 660-890 limits assumed): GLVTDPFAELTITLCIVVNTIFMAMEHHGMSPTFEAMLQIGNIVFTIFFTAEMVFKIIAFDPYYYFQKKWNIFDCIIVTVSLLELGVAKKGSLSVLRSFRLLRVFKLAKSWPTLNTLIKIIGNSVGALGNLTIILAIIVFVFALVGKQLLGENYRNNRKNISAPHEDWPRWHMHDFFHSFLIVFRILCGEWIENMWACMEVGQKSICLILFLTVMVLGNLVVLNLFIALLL
Sequence (Q9Y5Y9 1148-1722 limits assumed): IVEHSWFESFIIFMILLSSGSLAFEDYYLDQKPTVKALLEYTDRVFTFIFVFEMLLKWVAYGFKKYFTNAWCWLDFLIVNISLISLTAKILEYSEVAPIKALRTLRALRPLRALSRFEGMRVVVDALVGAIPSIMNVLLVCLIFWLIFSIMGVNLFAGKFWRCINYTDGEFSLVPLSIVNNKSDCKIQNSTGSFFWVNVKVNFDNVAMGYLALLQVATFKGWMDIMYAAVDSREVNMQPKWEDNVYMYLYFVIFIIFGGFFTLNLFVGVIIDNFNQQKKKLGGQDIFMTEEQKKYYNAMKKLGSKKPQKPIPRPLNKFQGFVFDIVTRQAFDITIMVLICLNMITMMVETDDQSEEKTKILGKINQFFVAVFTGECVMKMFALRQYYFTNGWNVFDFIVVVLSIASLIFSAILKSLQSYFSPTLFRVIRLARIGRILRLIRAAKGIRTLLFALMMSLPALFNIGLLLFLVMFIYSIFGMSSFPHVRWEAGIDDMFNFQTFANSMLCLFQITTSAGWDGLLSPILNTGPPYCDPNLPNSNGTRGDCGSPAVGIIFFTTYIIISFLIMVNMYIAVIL
pIC50: −log10 of the molar value.
Quantity kind: pIC50

Examples with their reported pIC50 follow.
Compound	pIC50
C[C@H]1[C@@H](c2ccc(F)c(F)c2OC[C@H]2CC[C@H]2O)[C@H](C(=O)Nc2ccnc(C(N)=O)c2)O[C@@]1(C)C(F)(F)F (relative stereo) [Compound 99]	7.00 to 8.00
COc1c([C@H]2[C@H](C(=O)Nc3ccnc(C(=O)N4CC5CC(C4)O5)c3)O[C@@](C)(C(F)(F)F)[C@H]2C)ccc(F)c1F [Compound 218]	> 8.00

Using the record for COc1c([C@H]2[C@H](C(=O)Nc3cccc(C(=O)N4CCN(C)CC4)n3)O[C@@](C)(C(F)(F)F)[C@H]2C)ccc(F)c1F [Compound 10] , state its measured pIC50.
6.00 to 7.00

Using the record for C[C@H]1[C@@H](c2ccc(F)c(F)c2OC[C@H]2CCO2)[C@H](C(=O)Nc2ccnc(C(N)=O)c2)O[C@@]1(C)C(F)(F)F (single isomer, unassigned) [Compound 59] , state its measured pIC50.
> 8.00

Using the record for COc1c([C@H]2[C@H](C(=O)Nc3ccnc(C(=O)N(C)[C@H]4CNC[C@@H]4OC)c3)O[C@@](C)(C(F)(F)F)[C@H]2C)ccc(F)c1F [Compound 247] , state its measured pIC50.
> 8.00

Using the record for C[C@H]1[C@@H](c2ccc(F)c(F)c2OC2CC(O)C2)[C@H](C(=O)Nc2ccnc(C(N)=O)c2)O[C@@]1(C)C(F)(F)F (stereo partly drawn) [Compound 163] , state its measured pIC50.
> 8.00

* * *

Readings of IC50 for the listed compounds
Biological target: human Nav 1.8 (Homo sapiens)
Experiment: E-VIPR assay detecting and measuring Nav inhibition properties
Format: cell-based
Settings: HEK cells expressing a truncated form of human Nav 1.8; compound numbers without "*" (not marked as run in the presence of human serum); read-out: measured IC50 value in the E-VIPR Assay
Excerpt: E-VIPR Assay Detecting and Measuring Nav Inhibition Properties Sodium ion channels are voltage-dependent proteins that can be activated by inducing membrane voltage changes by applying electric fields. […]

Examples with their reported IC50 follow.
> print(dat)
                                   compound  reported.result
1  CC(C)C(COc1c([C@H]2[C@H](C(=O)Nc3ccnc(C(N)=O)c3)O[C@@](C)(C(F)(F)F)[C@H]2C)ccc(F)c1F)=NO [Compound 186]          < 10 nM
2  C[C@H]1[C@@H](c2ccc(F)c(F)c2OCCNC2COC2)[C@H](C(=O)Nc2ccnc(C(N)=O)c2)O[C@@]1(C)C(F)(F)F     10 to 100 nM
3  C[C@H]1[C@@H](c2cccc(C(F)(F)F)c2O[C@H]2C[C@@H](O)C2)[C@H](C(=O)Nc2ccnc(C(N)=O)c2)O[C@@]1(C)C(F)(F)F          < 10 nM
4  COc1c([C@H]2[C@H](C(=O)Nc3ccnc(C(=O)NC[C@@H]4CC(F)(F)CN4C)c3)O[C@@](C)(C(F)(F)F)[C@H]2C)ccc(F)c1F   100 to 1000 nM
5  CO[C@@H]1CCN(CCOc2c([C@H]3[C@H](C(=O)Nc4ccnc(C(N)=O)c4)O[C@@](C)(C(F)(F)F)[C@H]3C)ccc(F)c2F)C1     10 to 100 nM

Using the record for `COc1c([C@H]2[C@H](C(=O)Nc3ccnc(C(=O)N[C@H]4CN(C)C[C@@H]4OC)c3)O[C@@](C)(C(F)(F)F)[C@H]2C)ccc(F)c1F` , state its measured IC50.
10 to 100 nM

Using the record for COc1c([C@@H]2[C@@H](C(=O)Nc3ccnc(C(N)=O)c3)O[C@](C)(C(F)(F)F)[C@@H]2C)ccc(OCC2CC2)c1F (single isomer, unassigned) , state its measured IC50.
100 to 1000 nM

Using the record for `COc1c([C@H]2[C@H](C(=O)Nc3ccnc(C(=O)N4C[C@H](N)[C@@H](F)C4)c3)O[C@@](C)(C(F)(F)F)[C@H]2C)ccc(F)c1F` , state its measured IC50.
< 10 nM

Using the record for `COc1c([C@H]2[C@H](C(=O)Nc3ccnc(C(=O)NC[C@@H]4CC(F)(F)CN4)c3)O[C@@](C)(C(F)(F)F)[C@H]2C)ccc(F)c1F` , state its measured IC50.
100 to 1000 nM

Using the record for COc1c([C@H]2[C@H](C(=O)Nc3ccnc(C(=O)N4CCC(N(C)C)C4)c3)O[C@@](C)(C(F)(F)F)[C@H]2C)ccc(F)c1F (single isomer, unassigned) , state its measured IC50.
< 10 nM

Using the record for `C[C@H]1[C@@H](c2ccc(F)c(F)c2OCCNCC(F)F)[C@H](C(=O)Nc2ccnc(C(N)=O)c2)O[C@@]1(C)C(F)(F)F` , state its measured IC50.
< 10 nM

Sourced from patent US20250213555A1
